MEASURED_METRIC: melting point (°C)

The cases that follow already have their melting point on record.
| MOLECULE | MEASURED_METRIC | TEST_RESULT |
| --- | --- | --- |
| c1cc(-c2nc3c(s2)CNCC3)ccc1O[C@H]1C[C@H](N2CCCCC2)C1 | melting point | 144.5 |
| CC(=O)N1CCc2nc(-c3ccc(O[C@H]4C[C@H](N5CCCCC5)C4)cc3F)sc2C1 | melting point | 142.8 |
| CCNC(=O)N1CCc2nc(-c3ccc(O[C@H]4C[C@H](N5CCCCC5)C4)cc3)sc2C1 | melting point | 200 |

(P) CC(=O)N1CCc2nc(-c3ccc(O[C@H]4C[C@H](N5CCN(C(C)C)CC5)C4)cc3)sc2C1
(Q) OCC(O)CN1CCc2nc(-c3ccc(O[C@H]4C[C@H](N5CCCCC5)C4)cc3)sc2C1 (stereo partly shown)
Just tell me: smaller melting point value, P or Q ? Give the label under which the chosen entry appears.
P

(a) OCCN1CCc2nc(-c3ccc(O[C@H]4C[C@H](N5CCCCC5)C4)cc3)sc2C1
(b) NC(=O)CN1CCc2nc(-c3ccc(O[C@H]4C[C@H](N5CCCCC5)C4)cc3)sc2C1
Given the listed items, does a or b have the lesser reported melting point? Your choice should be expressed through its label.
a
(a: 142 °C, b: 231 °C)

(1) NC(=O)N1CCc2nc(-c3ccc(O[C@H]4C[C@H](N5CCCCC5)C4)cc3)sc2C1
(2) CC(=O)N1CCc2nc(-c3ccc(O[C@H]4C[C@H](N5CCCCCC5)C4)cc3)sc2C1
Select one: 1 or 2 . Criterion: greater recorded melting point. I would appreciate it if you answered with the label of your choice.
1

====

MEASURED_METRIC: melting point (°C)

| COMPOUND | UNIT_OF_MEASUREMENT | melting point |
| --- | --- | --- |
| O=C(CCCN1CC[S+]([O-])CC1)N1CCc2nc(-c3ccc(O[C@H]4C[C@H](N5CCCCC5)C4)cc3)sc2C1 [Compound 41] | °C | 165 |
| COCC(=O)N1CCc2nc(-c3ccc(O[C@H]4C[C@H](N5CCCCC5)C4)cc3)sc2C1 [Compound 2] | °C | 128 |
| O=C(CO)N1CCc2sc(-c3ccc(O[C@H]4C[C@H](N5CCCCC5)C4)cc3)nc2C1 [Compound 63] | °C | 155.3 |
| NCC(=O)N1CCc2nc(-c3ccc(O[C@H]4C[C@H](N5CCCCC5)C4)cc3)sc2C1 [Compound 9] | °C | 199 |
| NC(=O)CC(=O)N1CCc2sc(-c3ccc(O[C@H]4C[C@H](N5CCCCC5)C4)cc3)nc2C1 [Compound 65] | °C | 183.4 |
| O=C(CO)N1CCc2nc(-c3ccc(O[C@H]4C[C@H](N5CCCCC5)C4)cc3)sc2C1 [Compound 11] | °C | 177 |
| CC(=O)N1CCc2sc(-c3ccc(O[C@H]4C[C@H](N5CCCCC5)C4)cc3)nc2C1 [Compound 29] | °C | 154.2 |
| OC[C@@H](O)CN1CCc2nc(-c3ccc(O[C@H]4C[C@H](N5CCCCC5)C4)cc3)sc2C1 [Compound 16] | °C | 175 |
| NC(=O)CC(=O)N1CCc2nc(-c3ccc(O[C@H]4C[C@H](N5CCCCC5)C4)cc3)sc2C1 [Compound 25] | °C | 176 |
| O=C(N1CCOCC1)N1CCc2nc(-c3ccc(O[C@H]4C[C@H](N5CCCCC5)C4)cc3)sc2C1 [Compound 6] | °C | 149.3 |

Origin of values: patent US20100292188A1
